Data origin: patent US20240327497A1

I'd be grateful if you could share measured Kd for these entries.
# test-system: canine FcRn (FcRn large subunit with canine beta-2-microglobulin) (canine)
# experiment-summary: SPR pH 6.0, SASA-Fc captured on BSA, FcRn 100-800 nM
# value in nM; strip the unit string

Form field: reported Kd of canine IgGB Fc (CH2-CH3) Y436H with N-terminal SASA tag (Fc fusion, part only; not given: SASA tag, not shown: another chain or arm of the molecule; small tags and cut ends) Fc: APEMLGGPSVFIFPPKPKDTLLIARTPEVTCVVVDLDPEDPEVQISWFVDGKQMQTAKTQPREEQFNGTYRVVSVLPIGHQDWLKGKQFTCKVNNKALPSPIERTISKARGQAHQPSVYVLPPSREELSKNTVSLTCLIKDFFPPDIDVEWQSNGQQEPESKYRTTPPQLDEDGSYFLYSKLSVDKSRWQRGDTFICAVMHEALHNHHTQESLSHSPGK 386

Sample canine IgGB Fc (CH2-CH3) T286Y with N-terminal SASA tag (Fc fusion, part only; not given: SASA tag, not shown: another chain or arm of the molecule; small tags and cut ends) Fc: APEMLGGPSVFIFPPKPKDTLLIARTPEVTCVVVDLDPEDPEVQISWFVDGKQMQYAKTQPREEQFNGTYRVVSVLPIGHQDWLKGKQFTCKVNNKALPSPIERTISKARGQAHQPSVYVLPPSREELSKNTVSLTCLIKDFFPPDIDVEWQSNGQQEPESKYRTTPPQLDEDGSYFLYSKLSVDKSRWQRGDTFICAVMHEALHNHYTQESLSHSPGK — what was its Kd? 632

Any idea what Kd was measured for canine IgGB Fc (CH2-CH3) T286F with N-terminal SASA tag (Fc fusion, part only; not given: SASA tag, not shown: another chain or arm of the molecule; small tags and cut ends) Fc: APEMLGGPSVFIFPPKPKDTLLIARTPEVTCVVVDLDPEDPEVQISWFVDGKQMQFAKTQPREEQFNGTYRVVSVLPIGHQDWLKGKQFTCKVNNKALPSPIERTISKARGQAHQPSVYVLPPSREELSKNTVSLTCLIKDFFPPDIDVEWQSNGQQEPESKYRTTPPQLDEDGSYFLYSKLSVDKSRWQRGDTFICAVMHEALHNHYTQESLSHSPGK ? 616
